# TARGET SYSTEM: CYP 2C9 (Homo sapiens, UniProt P11712)
# Sequence (P11712 whole entry): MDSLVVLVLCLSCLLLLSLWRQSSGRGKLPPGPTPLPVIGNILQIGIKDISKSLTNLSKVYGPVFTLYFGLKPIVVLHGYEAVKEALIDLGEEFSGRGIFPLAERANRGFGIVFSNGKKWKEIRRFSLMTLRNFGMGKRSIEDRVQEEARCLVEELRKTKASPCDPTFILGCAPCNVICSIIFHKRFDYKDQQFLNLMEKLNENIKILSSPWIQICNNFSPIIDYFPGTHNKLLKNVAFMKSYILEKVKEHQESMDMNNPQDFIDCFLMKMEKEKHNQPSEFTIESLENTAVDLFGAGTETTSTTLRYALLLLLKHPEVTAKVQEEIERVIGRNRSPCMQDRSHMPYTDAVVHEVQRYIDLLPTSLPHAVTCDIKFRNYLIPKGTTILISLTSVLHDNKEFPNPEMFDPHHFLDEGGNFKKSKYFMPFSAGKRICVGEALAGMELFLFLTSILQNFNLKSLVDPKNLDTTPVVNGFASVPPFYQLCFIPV
# PROTOCOL SUMMARY: CYP inhibition assay in human liver microsomes
# Assay type: in vitro ADME
# ASSAY CONDITIONS: IC50 CYP 2C9, human liver microsomes; duplicate incubations, both values printed
OUTCOME MEASURE: pIC50
Scale: negative log10 of molar concentration, which is what pIC50 denotes.

In: Provide the documented pIC50 with CYP 2C9 (Homo sapiens, UniProt P11712) as the system for COc1cc(CNC(=O)CCCC/C=C/C(C)C)ccc1O [Cap, capsaicin]
Out: 5.35

* * *

# TARGET SYSTEM: CYP 2B6 (Homo sapiens)
# Sequence (P20813 whole entry): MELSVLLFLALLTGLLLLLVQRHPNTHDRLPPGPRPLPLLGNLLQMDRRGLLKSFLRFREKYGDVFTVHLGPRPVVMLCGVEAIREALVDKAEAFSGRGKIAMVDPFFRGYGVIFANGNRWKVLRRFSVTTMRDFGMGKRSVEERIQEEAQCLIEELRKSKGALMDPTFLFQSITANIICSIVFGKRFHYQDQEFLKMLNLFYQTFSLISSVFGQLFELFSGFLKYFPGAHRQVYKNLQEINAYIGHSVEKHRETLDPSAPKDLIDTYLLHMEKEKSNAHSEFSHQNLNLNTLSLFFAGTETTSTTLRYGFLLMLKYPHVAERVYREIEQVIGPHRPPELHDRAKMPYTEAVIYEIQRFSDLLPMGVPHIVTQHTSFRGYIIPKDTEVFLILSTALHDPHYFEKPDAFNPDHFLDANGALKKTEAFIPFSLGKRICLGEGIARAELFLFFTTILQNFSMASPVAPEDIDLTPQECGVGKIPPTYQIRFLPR
pIC50: −log10 of the molar value.
OUTCOME MEASURE: pIC50

In: Provide the documented pIC50 with CYP 2B6 (Homo sapiens) as the system for COc1ccc2c(c1OC)C(=O)O[C@@H]2[C@H]1c2c(cc3c(c2OC)OCO3)CCN1C [Nos, Noscapine]
Out: < 4.00

* * *

# PROTOCOL SUMMARY: Repeated-dose
# Assay type: in vivo, male CD-1 mice
# ASSAY CONDITIONS: male, CD-1, mouse, plasma, po, 50 mg/kg
OUTCOME MEASURE: Tmax at 7 days (min)
Give the number; min is assumed, so skip it.

In: Find the recorded Tmax at 7 days belonging to COc1ccc2c(c1OC)C(=O)O[C@@H]2[C@H]1c2c(cc3c(c2OC)OCO3)CCN1C [Nos, Noscapine] and report it.
Out: 15

* * *

# PROTOCOL SUMMARY: Repeated-dose
# Type: in vivo, male CD-1 mice
# ASSAY CONDITIONS: male, CD-1, mouse, plasma, po, 50 mg/kg, AUClast, Day 7; noscapine; daily oral gavage Nos 50 mg/kg bw, Cap/Pip 5 mg/kg bw; CD-1 mice
OUTCOME MEASURE: AUC(0-t) (ng·h/mL)
Give the number; ng·h/mL is assumed, so skip it.

In: Find the recorded AUC(0-t) belonging to `COc1ccc2c(c1OC)C(=O)O[C@@H]2[C@H]1c2c(cc3c(c2OC)OCO3)CCN1C` and report it.
Out: 508

* * *

Measured IC50 of individual entries
# TARGET SYSTEM: CYP 2E1 (Homo sapiens, UniProt P05181)
# Sequence (P05181 whole entry): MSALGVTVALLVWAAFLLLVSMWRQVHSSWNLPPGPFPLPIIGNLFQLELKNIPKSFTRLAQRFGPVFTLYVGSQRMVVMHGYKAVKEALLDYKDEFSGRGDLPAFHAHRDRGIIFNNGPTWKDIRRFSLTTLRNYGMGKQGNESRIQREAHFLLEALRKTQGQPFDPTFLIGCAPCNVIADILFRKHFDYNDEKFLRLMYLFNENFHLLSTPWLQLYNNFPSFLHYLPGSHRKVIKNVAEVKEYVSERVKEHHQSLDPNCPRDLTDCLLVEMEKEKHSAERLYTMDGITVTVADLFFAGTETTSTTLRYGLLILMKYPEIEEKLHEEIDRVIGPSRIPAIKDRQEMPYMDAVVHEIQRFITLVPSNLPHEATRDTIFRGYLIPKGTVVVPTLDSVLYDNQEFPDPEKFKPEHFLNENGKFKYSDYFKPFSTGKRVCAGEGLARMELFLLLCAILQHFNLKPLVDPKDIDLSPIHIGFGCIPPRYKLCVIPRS

Please review the following examples before continuing.
SMILES	IC50
COc1cc(CNC(=O)CCCC/C=C/C(C)C)ccc1O	> 100 µM
O=C(/C=C/C=C/c1ccc2c(c1)OCO2)N1CCCCC1	> 100 µM

Now let's try a different one.
In: Provide the documented IC50 with CYP 2E1 (Homo sapiens, UniProt P05181) as the system for `COc1ccc2c(c1OC)C(=O)O[C@@H]2[C@H]1c2c(cc3c(c2OC)OCO3)CCN1C`
Out: > 100 µM
